Values compiled from patent US10947271B2.

# Assay Overview: Stability of compounds in human plasma
# Measurement Conditions: 1 h, 50% human plasma/PBS pH 7.4, 37° C.
Field: % compound remaining after incubation in 50% human plasma. Provide a value for each of the molecules that follow.
The reply should contain only the number, in %.

For the molecule shown here, CCCCCCCCCCCCCC(=O)N[C@@H](CCCCN)C(=O)N[C@@H](CCCCN)C(=O)NCC(=O)NCCNC(=O)[C@H]1NC(=O)[C@H]2NC(=O)[C@H](NC(=O)[C@@H]3NC(=O)[C@H](CC(N)=O)NC(=O)[C@H](NC(=O)[C@@H](CC(C)C)NC)[C@H](O)c4ccc(c(Cl)c4)Oc4cc3cc(c4O[C@@H]3O[C@H](CO)[C@@H](O)[C@H](O)[C@H]3O[C@H]3C[C@](C)(N)[C@H](O)[C@H](C)O3)Oc3ccc(cc3Cl)[C@H]2O)c2ccc(O)c(c2)-c2c(O)cc(O)cc21 [MCC_000226, nC13CO-KKG-NHC2NH-Vanc] , give the reported % compound remaining after incubation in 50% human plasma.
98

For the molecule shown here, CNC(CC(C)C)C(=O)NC1C(=O)NC(CC(N)=O)C(=O)NC2C(=O)NC3C(=O)NC(C(=O)NC(C(=O)NCCCCC(NC(=O)C(CCCCN)NC(=O)C(CCCCN)NC(=O)c4ccc(Oc5ccccc5)cc4)C(=O)O)c4cc(O)cc(O)c4-c4cc3ccc4O)C(O)c3ccc(c(Cl)c3)Oc3cc2cc(c3OC2OC(CO)C(O)C(O)C2OC2CC(C)(N)C(O)C(C)O2)Oc2ccc(cc2Cl)C1O (centres unmarked) , give the reported % compound remaining after incubation in 50% human plasma.
101

----------
# Assay Overview: Stability of compounds in human plasma
# Measurement Conditions: 24 h, 50% human plasma/PBS pH 7.4, 37° C.
# Method: Briefly test compounds (20 μM) were prepared from a 1 mM stock solution. The human plasma sample (200 μl) was diluted with 160 μl phosphate-buffer saline (PBS, pH 7.4) to a concentration of 50% v/v before use. Solutions were then vortexed and placed on a 37° C. shaker and shaken gently for 10 minutes. 40 μl of the test compounds were then added to the plasma sample and vortexed. […]
Field: % compound remaining after incubation in 50% human plasma. Provide a value for each of the compounds that follow.
Note: state the figure and append the unit.

For the compound shown here, CNC(CC(C)C)C(=O)NC1C(=O)NC(CC(N)=O)C(=O)NC2C(=O)NC3C(=O)NC(C(=O)NC(C(=O)NCCCCC(NC(=O)C(CCCCN)NC(=O)C(CCCCN)NC(=O)c4ccc(Oc5ccccc5)cc4)C(=O)O)c4cc(O)cc(O)c4-c4cc3ccc4O)C(O)c3ccc(c(Cl)c3)Oc3cc2cc(c3OC2OC(CO)C(O)C(O)C2OC2CC(C)(N)C(O)C(C)O2)Oc2ccc(cc2Cl)C1O (centres unmarked) , give the reported % compound remaining after incubation in 50% human plasma.
111%

For the compound shown here, CCCCCCCCCCC(=O)N[C@@H](CCCCN)C(=O)N[C@@H](CCCCN)C(=O)N[C@@H](CCCCN)C(=O)N[C@@H](CCCCNC(=O)[C@H]1NC(=O)[C@H]2NC(=O)[C@H](NC(=O)[C@@H]3NC(=O)[C@H](CC(N)=O)NC(=O)[C@H](NC(=O)[C@@H](CC(C)C)NC)[C@H](O)c4ccc(c(Cl)c4)Oc4cc3cc(c4O[C@@H]3O[C@H](CO)[C@@H](O)[C@H](O)[C@H]3O[C@H]3C[C@](C)(N)[C@H](O)[C@H](C)O3)Oc3ccc(cc3Cl)[C@H]2O)c2ccc(O)c(c2)-c2c(O)cc(O)cc21)C(=O)O [MCC_000229, nC10CO-KKK-K(Vanc)-OH] , give the reported % compound remaining after incubation in 50% human plasma.
93%
